Please go through the items and note down their Normalized ratio of PI uptake (10 μM).
- SYSTEM UNDER TEST: TRPM7 (Mus musculus)
- Construct: expressed in transfected cells; host or cells: HEK-293 tSA (HEK-293T) cells, transient transfection with Lipofectamine 2000
- Sequence (Q923J1 whole entry): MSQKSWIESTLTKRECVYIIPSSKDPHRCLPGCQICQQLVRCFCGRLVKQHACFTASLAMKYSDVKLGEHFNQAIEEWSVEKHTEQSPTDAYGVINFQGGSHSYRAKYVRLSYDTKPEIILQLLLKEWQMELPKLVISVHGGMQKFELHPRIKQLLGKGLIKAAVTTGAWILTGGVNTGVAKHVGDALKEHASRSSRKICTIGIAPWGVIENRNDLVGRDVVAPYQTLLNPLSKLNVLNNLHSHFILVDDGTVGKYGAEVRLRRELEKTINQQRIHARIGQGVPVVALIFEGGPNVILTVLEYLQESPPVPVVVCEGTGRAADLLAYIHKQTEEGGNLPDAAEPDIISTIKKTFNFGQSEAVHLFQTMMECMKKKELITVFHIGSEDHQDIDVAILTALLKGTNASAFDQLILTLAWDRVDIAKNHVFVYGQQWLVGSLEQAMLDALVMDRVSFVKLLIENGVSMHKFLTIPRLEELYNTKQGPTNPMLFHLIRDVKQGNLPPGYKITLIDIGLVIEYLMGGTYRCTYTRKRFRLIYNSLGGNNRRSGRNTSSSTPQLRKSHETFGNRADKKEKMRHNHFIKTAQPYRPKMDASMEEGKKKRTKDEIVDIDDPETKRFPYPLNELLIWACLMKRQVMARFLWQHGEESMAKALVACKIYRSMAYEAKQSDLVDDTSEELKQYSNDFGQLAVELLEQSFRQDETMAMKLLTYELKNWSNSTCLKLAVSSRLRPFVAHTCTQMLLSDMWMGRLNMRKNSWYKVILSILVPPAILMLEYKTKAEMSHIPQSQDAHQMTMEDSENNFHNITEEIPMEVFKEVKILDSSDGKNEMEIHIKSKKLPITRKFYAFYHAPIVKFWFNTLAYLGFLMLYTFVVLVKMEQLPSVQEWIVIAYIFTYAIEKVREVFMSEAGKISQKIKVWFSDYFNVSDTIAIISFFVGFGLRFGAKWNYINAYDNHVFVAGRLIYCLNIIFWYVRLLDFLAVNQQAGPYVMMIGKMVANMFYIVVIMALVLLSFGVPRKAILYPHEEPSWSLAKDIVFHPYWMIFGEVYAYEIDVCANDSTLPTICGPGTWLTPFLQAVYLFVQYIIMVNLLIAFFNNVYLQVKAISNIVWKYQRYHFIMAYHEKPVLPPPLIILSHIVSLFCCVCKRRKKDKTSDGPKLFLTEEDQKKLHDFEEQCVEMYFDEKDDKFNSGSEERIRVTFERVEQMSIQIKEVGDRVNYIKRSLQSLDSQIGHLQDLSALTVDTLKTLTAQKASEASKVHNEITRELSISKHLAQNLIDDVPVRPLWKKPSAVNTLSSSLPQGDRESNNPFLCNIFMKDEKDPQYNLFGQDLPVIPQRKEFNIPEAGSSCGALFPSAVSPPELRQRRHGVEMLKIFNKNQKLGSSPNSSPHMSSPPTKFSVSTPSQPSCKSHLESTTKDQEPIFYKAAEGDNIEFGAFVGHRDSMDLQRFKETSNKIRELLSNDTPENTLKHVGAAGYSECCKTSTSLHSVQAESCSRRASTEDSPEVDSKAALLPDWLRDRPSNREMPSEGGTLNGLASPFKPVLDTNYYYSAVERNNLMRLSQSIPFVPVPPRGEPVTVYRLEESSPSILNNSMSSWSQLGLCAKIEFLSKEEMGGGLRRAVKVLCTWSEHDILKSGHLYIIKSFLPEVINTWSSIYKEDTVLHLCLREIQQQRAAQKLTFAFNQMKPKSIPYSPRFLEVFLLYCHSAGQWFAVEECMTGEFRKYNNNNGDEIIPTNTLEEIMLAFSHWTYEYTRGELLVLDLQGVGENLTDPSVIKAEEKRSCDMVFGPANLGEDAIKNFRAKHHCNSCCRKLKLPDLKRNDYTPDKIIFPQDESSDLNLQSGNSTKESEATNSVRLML
- EXPERIMENT SUMMARY: PI uptake cell death assay in TRPM7-expressing HEK-293 cells (type of assay from Example 1)
- Type: cell-based, murine
- TEST CONTEXT: 10 μM; Table X; the lower the number, the more potent
Answer with a bare number; do not write a unit.

Query block: Request the reported Normalized ratio of PI uptake (10 μM) associated with COc1cc(OC)c2c(C)c(Cc3cccc(Cl)c3)c(=O)[nH]c2c1
Result block: 0.042

Query block: Requested field: Normalized ratio of PI uptake (10 μM). Item: COc1ccc2c(Cl)c(C3NCCc4cc(OC)c(OC)cc43)sc2c1 (centres unmarked)
Result block: 0.003

Query block: Fill in the blank: the reported Normalized ratio of PI uptake (10 μM) of COc1cccc2c1CCN=C2c1sc2ccccc2c1Cl is ____.
Result block: 0.06

Query block: Record request: Normalized ratio of PI uptake (10 μM) value, item Fc1ccc2c(c1)CCN=C2c1sc2ccccc2c1Cl
Result block: 0.010

Query block: May I ask what Normalized ratio of PI uptake (10 μM) has been recorded for COc1ccc2c(c1)C(c1sc3ccccc3c1Cl)NCC2 (centres unmarked) ?
Result block: 0.06

Values from patent US9334256B2
